The measured values listed here are drawn from BindingDB's records for doi:10.1021/jm701383e.

Biological target: Prostaglandin D2 receptor 2 (Homo sapiens, UniProt Q9Y5Y4)
Sequence (Q9Y5Y4 whole entry): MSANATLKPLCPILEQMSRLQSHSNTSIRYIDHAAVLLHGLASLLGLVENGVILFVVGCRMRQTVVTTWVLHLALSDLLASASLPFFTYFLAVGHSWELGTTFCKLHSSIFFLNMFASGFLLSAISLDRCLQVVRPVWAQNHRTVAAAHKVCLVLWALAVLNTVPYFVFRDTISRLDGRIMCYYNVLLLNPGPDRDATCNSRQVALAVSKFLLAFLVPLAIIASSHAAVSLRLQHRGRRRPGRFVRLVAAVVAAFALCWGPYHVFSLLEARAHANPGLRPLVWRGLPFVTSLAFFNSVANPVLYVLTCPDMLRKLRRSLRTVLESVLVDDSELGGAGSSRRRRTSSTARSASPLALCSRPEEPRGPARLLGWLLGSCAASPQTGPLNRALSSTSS
Assay: Radioligand Binding Assay and [35S] GTP-gamma-S Binding Assay
Settings: pH 7.4; 22 °C
experimental_readout: IC50 (nM)
Report as a plain number; the unit nM is understood.

Reference set (3 entries):
I'd like to know its IC50. The compound in question is O=C(O)CN1C(=O)C2(CC(=O)N(Cc3ccccc3)C2=O)c2cc(Cl)ccc21 (centres undefined)
418

Any idea what IC50 was measured for O=C(O)CN1C(=O)C2(CC(=O)N(Cc3cccc(Cl)c3)C2=O)c2cc(Cl)ccc21 (centres undefined) ?
122

Name the reported IC50 value associated with the compound O=C(O)CN1C(=O)C2(CC(=O)N(Cc3ccc(F)cc3)C2=O)c2cc(Cl)ccc21 (centres undefined)
182

Now look at this one.
May I ask what IC50 has been recorded for O=C(O)CN1C(=O)C2(CC(=O)N(Cc3ccccc3F)C2=O)c2cc(Cl)ccc21 (centres undefined) ?
212

====

Biological target: Prostaglandin D2 receptor 2 (Homo sapiens)
Sequence (Q9Y5Y4 whole entry): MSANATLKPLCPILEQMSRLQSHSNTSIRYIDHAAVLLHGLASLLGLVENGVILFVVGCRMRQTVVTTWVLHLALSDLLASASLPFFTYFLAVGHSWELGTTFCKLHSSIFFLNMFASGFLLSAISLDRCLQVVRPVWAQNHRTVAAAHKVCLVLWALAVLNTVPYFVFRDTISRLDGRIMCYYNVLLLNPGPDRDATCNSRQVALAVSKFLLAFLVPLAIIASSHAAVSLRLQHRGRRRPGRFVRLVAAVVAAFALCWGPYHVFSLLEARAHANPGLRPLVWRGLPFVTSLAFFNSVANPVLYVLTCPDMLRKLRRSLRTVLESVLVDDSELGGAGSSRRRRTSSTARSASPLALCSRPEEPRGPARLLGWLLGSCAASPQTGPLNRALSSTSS
Assay: Radioligand Binding Assay and [35S] GTP-gamma-S Binding Assay
Method: A scintillation proximity assay was used for radioligand competition and saturation binding assays. Nonspecific binding was determined in the presence of 1 uM PGD2. Binding activity was determined by using a 1450 Microbeta scintillation counter (Wallac, UK). Ki values were calculated by using the Cheng-Prusoff equation, and represent the average of at least three independent dose-response experiments. […]
experimental_readout: pKi
FYI, pKi means -log10 of a concentration in mol per litre.

Looking for the measured pKi of `O=C(O)CN1C(=O)[C@@]2(CC(=O)N(Cc3cc(Cl)ccc3F)C2)c2cc(Cl)ccc21` , can you help?
7.89

New cases:
Fill in: pKi of `O=C(O)CN1C(=O)[C@]2(CC(=O)N(Cc3cc(Cl)ccc3F)C2)c2cc(Cl)ccc21` is ___
6.17
